- system.name: T1, Mdm2 (1-125) (human, UniProt Q00987 1-125)
- T1 construct: range 1-125; also called Hdm2
- assay: apparent Kd, competitive fluorescence polarization; displacement of FAM-…-NH2 from Mdm2 (1-125)
Bridges are numbered along the chain shown (N, C = ends). [ ]: non-standard residue; d: D form. R8 = C=CCCCCCC[C@@](C)(N)C(=O)O; S5 = C=CCCC[C@](C)(N)C(=O)O
Listing of recorded Kd by entry.

binder | reading.unit | Kd
Ac-TSF[R8]EYWFLL[S5]-NH2 (staple 4-11; SMILES CC(=O)N[C@H](C(=O)N[C@@H](CO)C(=O)N[C@@H](Cc1ccccc1)C(=O)N[C@]1(C)CCCCCCC=CCCC[C@@](C)(C(N)=O)NC(=O)[C@H](CC(C)C)NC(=O)[C@H](CC(C)C)NC(=O)[C@H](Cc2ccccc2)NC(=O)[C@H](Cc2c[nH]c3ccccc23)NC(=O)[C@H](Cc2ccc(O)cc2)NC(=O)[C@H](CCC(=O)O)NC1=O)[C@@H](C)O, also called Ac-TSFXEYWFLLX-NH2) [sMTide-07] | nM | 175
Ac-SF[R8]EYWALL[S5]-NH2 (staple 3-10; SMILES CC(=O)N[C@@H](CO)C(=O)N[C@@H](Cc1ccccc1)C(=O)N[C@]1(C)CCCCCCC=CCCC[C@@](C)(C(N)=O)NC(=O)[C@H](CC(C)C)NC(=O)[C@H](CC(C)C)NC(=O)[C@H](C)NC(=O)[C@H](Cc2c[nH]c3ccccc23)NC(=O)[C@H](Cc2ccc(O)cc2)NC(=O)[C@H](CCC(=O)O)NC1=O, also called Ac-SFXEYWALLX-NH2) [sMTide-04] | nM | 104
Ac-TSF[R8]EYWKLL[S5]-NH2 (staple 4-11; SMILES CC(=O)N[C@H](C(=O)N[C@@H](CO)C(=O)N[C@@H](Cc1ccccc1)C(=O)N[C@]1(C)CCCCCCC=CCCC[C@@](C)(C(N)=O)NC(=O)[C@H](CC(C)C)NC(=O)[C@H](CC(C)C)NC(=O)[C@H](CCCCN)NC(=O)[C@H](Cc2c[nH]c3ccccc23)NC(=O)[C@H](Cc2ccc(O)cc2)NC(=O)[C@H](CCC(=O)O)NC1=O)[C@@H](C)O, also called Ac-TSFXEYWKLLX-NH2) [sMTide-05] | nM | 26.3
